test-target: CD63 on cells (human) (UniProt P08962)
Sequence (P08962 2-238): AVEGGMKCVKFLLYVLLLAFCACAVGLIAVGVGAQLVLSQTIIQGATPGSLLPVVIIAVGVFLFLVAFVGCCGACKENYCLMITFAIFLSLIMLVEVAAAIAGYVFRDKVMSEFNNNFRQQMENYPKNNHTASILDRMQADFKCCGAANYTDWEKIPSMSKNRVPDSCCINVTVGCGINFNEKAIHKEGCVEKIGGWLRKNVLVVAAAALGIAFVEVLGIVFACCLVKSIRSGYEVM
method-notes: cell-based or functional assay
reported-endpoint: log10 IC50 of cytotoxicity, Colo205 cells (CellTiter-GLO, 4 days) (log10 of the value in µg/mL)

binder="bsHER2xCD63-Duo3 with CD63 variant Y121H (bispecific antibody, part only; not given: HER2 arm, V domains shown, part only) VH: EVQLQQSGPELVKPGASVKMSCKASGYTFTSYVMHWVRQTPGQGLEWIGYITPYNDGTKYNEKFKGKATLTSDKSSSTAYMELSSLTSEDSAVYYCVGGDNHYYAMDYWGQGTSVTVSAA VL: NIMVTQSPSSLAVSAGEKVTMSCKSSQSVLYSSNQKNYLAWYQQKPGQSPKLLIYWASTRVSGVPDRFTGSGSGTDFTLTISRVQAEDLAVYYCHQYFSSFTFGSGTKLEIKRT" measured=1.00
binder="bsHER2xCD63-Duo3 with CD63 variant LQ47 (bispecific antibody, part only; not given: HER2 arm, V domains shown, part only) VH: EVQLQQSGPELVKPGASVKMSCKASGYTFTSYVMHWVRQTPGQGLEWIGYITPYNDGTKYNEKFKGKATLTSDKSSSTAYMELSSLTSEDSAVYYCVGGDNYYYAMDYWGQGTSVTVSAA VL: NIMVTQSPSSLAVSAGEKVTMSCKSSHSVLYSSNQKNYLAWYQQKPGQSPKLLIYWASTRVSGVPDRFTGSGSGTDFTLTISRVQAEDLAVYYCHQYFSSFTFGSGTKLEIKRT" measured=-0.23
binder="bsHER2xCD63N74H-Duo3 (bispecific antibody, part only; not given: HER2 arm, V domains shown, part only) VH: EVQLQQSGPELVKPGASVKMSCKASGYTFTSYVMHWVRQTPGQGLEWIGYITPYHDGTKYNEKFKGKATLTSDKSSSTAYMELSSLTSEDSAVYYCVGGDNYYYAMDYWGQGTSVTVSAA VL: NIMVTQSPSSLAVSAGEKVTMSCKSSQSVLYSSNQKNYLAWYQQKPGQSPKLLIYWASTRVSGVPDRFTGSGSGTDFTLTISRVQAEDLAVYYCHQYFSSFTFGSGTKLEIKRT" measured=0.13
binder="bsHER2xCD63-Duo3 with CD63 variant G76H (bispecific antibody, part only; not given: HER2 arm (IgG1-153) VH and VL, V domains shown, part only) VH: EVQLQQSGPELVKPGASVKMSCKASGYTFTSYVMHWVRQTPGQGLEWIGYITPYNDHTKYNEKFKGKATLTSDKSSSTAYMELSSLTSEDSAVYYCVGGDNYYYAMDYWGQGTSVTVSAA VL: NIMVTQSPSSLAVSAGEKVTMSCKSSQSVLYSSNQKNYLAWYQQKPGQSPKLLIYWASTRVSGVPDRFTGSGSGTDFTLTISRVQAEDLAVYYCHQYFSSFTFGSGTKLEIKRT" measured=1.00
binder="bsHER2xCD63-Duo3 with CD63 variant LN54H (bispecific antibody, part only; not given: HER2 arm (IgG1-153) VH and VL, V domains shown, part only) VH: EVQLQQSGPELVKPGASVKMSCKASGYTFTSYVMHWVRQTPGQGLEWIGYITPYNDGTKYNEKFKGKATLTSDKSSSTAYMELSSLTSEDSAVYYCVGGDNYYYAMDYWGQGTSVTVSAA VL: NIMVTQSPSSLAVSAGEKVTMSCKSSQSVLYSSHQKNYLAWYQQKPGQSPKLLIYWASTRVSGVPDRFTGSGSGTDFTLTISRVQAEDLAVYYCHQYFSSFTFGSGTKLEIKRT" measured=0.23
binder="bsCD63N74Hxb12-Duo3 (bispecific antibody, part only; not given: b12 control arm, V domains shown, part only) VH: EVQLQQSGPELVKPGASVKMSCKASGYTFTSYVMHWVRQTPGQGLEWIGYITPYHDGTKYNEKFKGKATLTSDKSSSTAYMELSSLTSEDSAVYYCVGGDNYYYAMDYWGQGTSVTVSAA VL: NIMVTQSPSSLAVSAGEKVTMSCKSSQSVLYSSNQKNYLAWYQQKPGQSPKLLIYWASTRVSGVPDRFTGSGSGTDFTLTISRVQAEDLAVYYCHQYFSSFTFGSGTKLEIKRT" measured=0.59
binder="bsHER2xCD63-Duo3 with CD63 variant LV49H (bispecific antibody, part only; not given: HER2 arm (IgG1-153) VH and VL, V domains shown, part only) VH: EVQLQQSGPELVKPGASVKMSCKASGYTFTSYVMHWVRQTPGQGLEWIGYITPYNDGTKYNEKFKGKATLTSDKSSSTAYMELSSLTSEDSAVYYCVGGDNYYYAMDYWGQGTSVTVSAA VL: NIMVTQSPSSLAVSAGEKVTMSCKSSQSHLYSSNQKNYLAWYQQKPGQSPKLLIYWASTRVSGVPDRFTGSGSGTDFTLTISRVQAEDLAVYYCHQYFSSFTFGSGTKLEIKRT" measured=1.00
binder="bsCD63xb12-Duo3 with CD63 variant LY51H (bispecific antibody, part only; not given: b12 control arm VH and VL, V domains shown, part only) VH: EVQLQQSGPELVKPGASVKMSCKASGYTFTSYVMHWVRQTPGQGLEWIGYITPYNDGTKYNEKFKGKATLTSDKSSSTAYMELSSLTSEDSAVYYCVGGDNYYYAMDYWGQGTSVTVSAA VL: NIMVTQSPSSLAVSAGEKVTMSCKSSQSVLHSSNQKNYLAWYQQKPGQSPKLLIYWASTRVSGVPDRFTGSGSGTDFTLTISRVQAEDLAVYYCHQYFSSFTFGSGTKLEIKRT" measured=1.00
binder="bsHER2xCD63-Duo3 (bispecific antibody, part only; not given: HER2 arm, IgG1, V domains shown, part only) VH: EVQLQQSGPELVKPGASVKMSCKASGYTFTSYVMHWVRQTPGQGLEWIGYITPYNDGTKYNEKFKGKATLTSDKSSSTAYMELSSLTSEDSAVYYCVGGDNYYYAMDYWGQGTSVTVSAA VL: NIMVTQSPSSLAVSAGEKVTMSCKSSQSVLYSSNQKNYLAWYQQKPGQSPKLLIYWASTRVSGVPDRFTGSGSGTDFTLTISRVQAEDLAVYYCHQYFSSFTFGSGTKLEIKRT" measured=-0.38
binder="bsCD63xb12-Duo3 with CD63 variant LQ47 (bispecific antibody, part only; not given: b12 control arm, V domains shown, part only) VH: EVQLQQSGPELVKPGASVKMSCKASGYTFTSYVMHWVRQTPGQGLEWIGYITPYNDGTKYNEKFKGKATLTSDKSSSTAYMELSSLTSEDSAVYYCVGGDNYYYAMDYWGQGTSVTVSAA VL: NIMVTQSPSSLAVSAGEKVTMSCKSSHSVLYSSNQKNYLAWYQQKPGQSPKLLIYWASTRVSGVPDRFTGSGSGTDFTLTISRVQAEDLAVYYCHQYFSSFTFGSGTKLEIKRT" measured=0.39
